test: NCI Yeast Anticancer Drug Screen. Data for the mlh1 rad18 strain (AID 175); details: S. cerevisiae mlh1 rad18 strain growth inhibition; at 50.0 µM; active compounds read high
This is part of a sample that, as a whole, favours compounds with a hit. Of some 79,000 tested, about 15% had one in any assay.
OBSERVED PROPERTY: growth inhibition (%)
# unit: % | format: bare number

Sample answers from the record:
Cc1cccc2c1C1C(CC2=O)C(=O)c2ccccc2C1C (stereo unspecified): 11.5
O=c1c(F)cn2c(=O)n1CCCCCCCn1c(=O)c(F)cn(c1=O)CCCCCCC2: 1.55
COc1ccc(OCC(C)(C)O)cc1: -2.55
O=C(c1ccccc1)c1ccc2[nH]ccc(=O)c2c1: 4.3

Prompt: Identify measured growth inhibition corresponding to O=C1NC(=O)[C@@H](OCC2CCCCC2)[C@@H]2OCC3OC(C(O)C3O)C12 (stereo partly specified)
Completion: -5.7

Prompt: Identify measured growth inhibition corresponding to N=C(N)n1ncc2c1CCC/C2=N/N=C(N)N
Completion: 3.9

Prompt: Identify measured growth inhibition corresponding to CC1(C)CC(N2CCN(C3CC(C)(C)NC(C)(C)C3)CC2)CC(C)(C)N1
Completion: -29.6

Prompt: Identify measured growth inhibition corresponding to O=C(CNC(=O)c1ccccc1)NCS(=O)(=O)O
Completion: 11.3

Prompt: Identify measured growth inhibition corresponding to Nc1ccc2c(c1)Oc1c(F)c(F)cc3c(=O)c(C(=O)O)cn-2c13
Completion: 48.1

Prompt: Identify measured growth inhibition corresponding to CN(C)/C=N/NC(=O)C(O)(c1ccccc1)c1ccccc1
Completion: 7.15

Prompt: Identify measured growth inhibition corresponding to CC1(C)CCC2(CO)C(=C3C=CC4C5(C)CCC(O)C(C)(CO)C5CCC4(C)C3(C)CC2O)C1 (stereo unspecified)
Completion: 11.4
